Target: Δ^5 -lipoxygenase from rat basophilic leukemia (RBL-1) cells (Rattus norvegicus, UniProt P12527)
Construct: The isolated cytosolic fraction was stored in liquid N2 for up to 8 weeks without loss of 5-LO enzyme activity; endogenous in cells
Sequence (P12527 whole entry, stated change not applied): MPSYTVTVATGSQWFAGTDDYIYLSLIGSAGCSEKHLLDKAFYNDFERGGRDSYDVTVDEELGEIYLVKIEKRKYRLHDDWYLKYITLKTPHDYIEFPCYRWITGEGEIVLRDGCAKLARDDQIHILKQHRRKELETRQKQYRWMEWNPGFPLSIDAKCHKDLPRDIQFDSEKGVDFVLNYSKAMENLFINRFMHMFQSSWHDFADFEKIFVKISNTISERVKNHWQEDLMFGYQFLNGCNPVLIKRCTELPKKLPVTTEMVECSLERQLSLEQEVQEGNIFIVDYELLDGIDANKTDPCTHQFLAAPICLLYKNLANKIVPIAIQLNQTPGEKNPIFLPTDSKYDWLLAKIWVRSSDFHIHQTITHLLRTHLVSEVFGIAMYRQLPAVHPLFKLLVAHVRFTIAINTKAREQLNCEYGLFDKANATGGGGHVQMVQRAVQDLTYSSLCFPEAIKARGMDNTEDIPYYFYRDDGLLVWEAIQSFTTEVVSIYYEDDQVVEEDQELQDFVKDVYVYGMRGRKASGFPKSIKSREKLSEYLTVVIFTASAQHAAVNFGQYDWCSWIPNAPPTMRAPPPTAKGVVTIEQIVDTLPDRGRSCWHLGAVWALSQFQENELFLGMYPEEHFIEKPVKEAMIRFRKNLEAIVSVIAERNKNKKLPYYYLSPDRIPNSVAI
Test: In vitro test for Δ^5-lipoxygenase inhibitors (5-HETE radioimmunoassay)
Conditions: RBL-1 5-LO, 5-HETE formation; read-out: Inhib. of Δ^5 Lipoxygenase IC50
Quantity kind: IC50 (nM)

> print(dat)
                            chemical.string  unit.tag  value
1  CCCc1c(OCCCCCCc2cccc(O)c2O)ccc(C(=O)O)c1OC(C)=O        nM    190
2  CCCc1c(OCCCCCc2cccc(O)c2O)ccc(C(=O)O)c1O        nM      6
3  CCCc1cc(C(=O)O)cc(CCC)c1OCCCCCCc1cccc(O)c1O        nM    460

* * *

Tested on: myeloperoxidase accumulation (acetic acid-induced colitis)
Experiment: Acetic Acid-Induced Colitis in Rats, In Vivo
Set-up: species or system male rats (Sprague-Dawley)
Conditions: 10 mg/kg p.o
Quantity kind: Rat Acetic Acid Colitis Model % Inhib. of Myeloperoxidase Accumulation (%)

> print(dat)
                                   molecule                       experimental.system  unit.tag  value
1   CCCc1c(OCCCCc2cccc(O)c2O)ccc(C(=O)O)c1O  myeloperoxidase accumulation (acetic acid-induced colitis)         %     73
2  CCCc1c(OCCCCCCc2cccc(O)c2O)ccc(C(C)=O)c1O [1-[4-[6-(2,3-Dihydroxyphenyl)hexyloxy]]  myeloperoxidase accumulation (acetic acid-induced colitis)         %     51
3  CCCc1c(OCCCCCCc2ccc(C(C)C)c(O)c2O)ccc(C(=O)O)c1O  myeloperoxidase accumulation (acetic acid-induced colitis)         %     53

* * *

Test system: myeloperoxidase accumulation (acetic acid-induced colitis)
Experiment: Acetic Acid-Induced Colitis in Rats, In Vivo
Design: species or system male rats (Sprague-Dawley)
Conditions: 10 mg/kg p.o
Kindly return met if reported Rat Acetic Acid Colitis Model % Inhib. of Myeloperoxidase Accumulation is no lower than 80%; return not met if it is lower.

> print(dat)
                            chemical.string                       experimental.system  class.label
1  CCCc1c(OCCCCCCCCc2cccc(O)c2O)ccc(C(=O)O)c1O  myeloperoxidase accumulation (acetic acid-induced colitis)      not met
2  CCCc1c(OCCCCCCc2cc(C)c(O)c(O)c2C)ccc(C(=O)O)c1O  myeloperoxidase accumulation (acetic acid-induced colitis)          met
3  CCCc1c(OCCCCCCc2cccc(O)c2O)ccc(C(=O)O)c1O  myeloperoxidase accumulation (acetic acid-induced colitis)      not met
4  CCCc1c(OCCCCCCc2ccc(C(C)C)c(O)c2O)ccc(C(C)=O)c1O  myeloperoxidase accumulation (acetic acid-induced colitis)      not met
5       O=C(O)c1ccc(OCCCCCCc2cccc(O)c2O)cc1  myeloperoxidase accumulation (acetic acid-induced colitis)          met
